Listed here are compounds together with their documented Kd.
Target: MhPA14 (Marinobacter hydrocarbonoclasticus, UniProt A0ABF7PGZ6)
Sequence (A0ABF7PGZ6 entry or part of it): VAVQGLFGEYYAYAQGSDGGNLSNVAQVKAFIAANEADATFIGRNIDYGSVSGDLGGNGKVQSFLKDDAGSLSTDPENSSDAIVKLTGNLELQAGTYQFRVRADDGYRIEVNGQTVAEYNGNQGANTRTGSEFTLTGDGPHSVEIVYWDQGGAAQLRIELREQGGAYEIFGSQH
Test: Isothermal titration calorimetry (ITC)
Format: binding
Conditions: 30°C, 400 μM MhPA14, 8 mM sugar, fucose and glucose are averages of triplicate runs, read-out: Kd
Give the quantity in µM, number only.

compound	system-under-test	readout-unit	value-observed
O=CC[C@@H](O)[C@H](O)[C@H](O)CO [2-deoxy-D-glucose]	MhPA14 (Marinobacter hydrocarbonoclasticus, UniProt A0ABF7PGZ6)	µM	228

Attention now shifts to the item below.
Q: What value of Kd on MhPA14 (Marinobacter hydrocarbonoclasticus, UniProt A0ABF7PGZ6) does OC[C@H]1OC(O)[C@H](O)[C@@H](O)[C@@H]1O (some centres unmarked) [Glucose, glucose] have?
Result: 137

====

Biological target: MhPA14 (Marinobacter hydrocarbonoclasticus)
Assay: Isothermal titration calorimetry (ITC)
Type: binding
Conditions: Kd, 30°C, 400 μM MhPA14, 8 mM sugar, fucose and glucose are averages of triplicate runs
measured-parameter: Kd
Please report the result as a number followed by the unit.

Q: Fill in: Kd of O=C[C@H](O)[C@@H](O)[C@@H](O)[C@H](O)CO is ___
Result: 1540 µM

====

The entries below come with measured N (calculated stoichiometry) values attached.
Target: MhPA14 (Marinobacter hydrocarbonoclasticus, UniProt A0ABF7PGZ6)
Assay: Isothermal titration calorimetry (ITC)
Format: binding
Conditions: 30°C, fucose and glucose are averages of triplicate runs
Please reply with the number alone, leaving off any unit.

molecule	N (calculated stoichiometry)
O=CC[C@@H](O)[C@H](O)[C@H](O)CO [2-deoxy-D-glucose]	0.86
OC[C@H]1OC(O)[C@H](O)[C@@H](O)[C@@H]1O (stereo partly shown) [Glucose, glucose]	1.01
C[C@H](O)[C@@H](O)[C@@H](O)[C@H](O)C=O [Fucose, 6-deoxy-L-galactose]	0.98

Consider the record given below.
Q: Request: N (calculated stoichiometry), test system MhPA14 (Marinobacter hydrocarbonoclasticus, UniProt A0ABF7PGZ6), entry O=C[C@H](O)[C@@H](O)[C@@H](O)[C@H](O)CO [Galactose]
Result: 1.00
